# credit: patent US11384381B2

Listing of entries alongside the reported ΔA10 min.
System: CFP-DH4 (A1cOX)
Experiment: HbA1c detection reaction completed with excess A1cOX (Example 4)
Type: biochemical
Conditions: change in A694-A751 10 minutes after mixing sample with first reagent; 0.04% (w/v) compound; 5.3 mg/ml CFP-DH4 (excess); blood cells 10.4% HbA1c; pH 6.5, 37° C.; defined as ΔA100%
Method: In this Example, the amount of change in absorbance when an excess amount of A1cOX is used and HbA1c detection reaction was completed is determined. A reagent for HbA1c measurement having the following composition was prepared, and the measurement of HbA1c was carried out using Bio Majesty JCA-BMI650 (manufactured by JEOL Ltd.). Blood cells (10.4% HbA1c (NGSP value)) 30 mM MOPS-NaOH buffer solution, pH 6.5 0.2% (w/v) n-dodecyl-β-D-maltoside (manufactured by Dojindo Laboratories) […]
result_type: ΔA10 min

1. Cc1nn(-c2cc(S(=O)(=O)[O-])ccc2Cl)c(O)c1N=Nc1ccccc1.[Na+] | 0.011
2. COc1cc(N=Nc2cccc(S(=O)(=O)[O-])c2)ccc1NC(=O)Nc1ccc(N=Nc2ccc(O)c(C(=O)[O-])c2)cc1.[Na+].[Na+] | 0.017
3. O=C([O-])C1=NN(c2ccc(S(=O)(=O)[O-])cc2)C(=O)C1N=Nc1ccc(S(=O)(=O)[O-])cc1.[Na+].[Na+].[Na+] (stereo not shown) [Tartrazine, reference compound] | 0.032
4. O=S(=O)([O-])c1cccc(N=Nc2ccc(Nc3ccccc3)cc2)c1.[Na+] | 0.011
5. O=C([O-])c1cc(N=Nc2ccc([N+](=O)[O-])cc2)ccc1O.[Na+] | 0.016
6. O=C(O)c1cc(N=Nc2ccc3cc(S(=O)(=O)O)ccc3c2)ccc1O.[Na] | 0.024
7. O=C([O-])c1cc(N=Nc2cccc([N+](=O)[O-])c2)ccc1O.[Na+] | 0.016

====

Tested on: fructosyl amino acid oxidase (FAOD-E)
Experiment: Fructosyl valine detection reaction completed with excess fructosyl amino acid oxidase (Example 8)
Type: biochemical
Settings: change in A694-A751 9 minutes after mixing; 0.04% (w/v) compound; 21.4 U/ml FAOD-E (excess); 32 μM fructosyl valine; pH 8.0, 37° C.
result_type: ΔA9 min

1) COc1cc(N=Nc2ccc(N)cc2)c(C)cc1N [Disperse Diazo Black 3BF] | 0.062
2) O=C(O)c1cc(N=Nc2ccc3cc(S(=O)(=O)O)ccc3c2)ccc1O.[Na] [Chrome Yellow] | 0.066
3) O=C([O-])c1cc(N=Nc2cccc([N+](=O)[O-])c2)ccc1O.[Na+] [Alizarin Yellow GG] | 0.044
4) O=C([O-])c1cc(N=Nc2ccc([N+](=O)[O-])cc2)ccc1O.[Na+] [Mordant Orange 1] | 0.049

====

Tested on: fructosyl amino acid oxidase (FAOD-E)
Assay: Acceleration of fructosyl valine detection reaction with small amount of fructosyl amino acid oxidase (Example 9)
Assay type: biochemical
Settings: fructosyl valine detection reaction; ΔA/ΔA100%; 2.5 minutes after addition of second reagent; 0.04% (w/v) compound; 2.14 U/ml FAOD-E; not added: 29
Let's look at some compounds and their measured Degree of progression of reaction (%) after 7.5 minutes.
result_type: Degree of progression of reaction (%) after 7.5 minutes

1. COc1cc(N=Nc2ccc(N)cc2)c(C)cc1N [Disperse Diazo Black 3BF] | 86
2. O=C(O)c1cc(N=Nc2ccc3cc(S(=O)(=O)O)ccc3c2)ccc1O.[Na] [Chrome Yellow] | 43
3. O=C([O-])c1cc(N=Nc2ccc([N+](=O)[O-])cc2)ccc1O.[Na+] [Mordant Orange 1] | 37
4. O=C([O-])c1cc(N=Nc2cccc([N+](=O)[O-])c2)ccc1O.[Na+] [Alizarin Yellow GG] | 38

====

System: cholesterol oxidase (CHO-CE)
Assay: Cholesterol detection reaction completed with excess cholesterol oxidase (Example 12)
Type: biochemical
Conditions: change in A694-A751 10 minutes after mixing; 0.04% (w/v) compound; 11.6 U/ml CHO-CE (excess); 32 μM cholesterol; pH 7.0, 37° C.; defined as ΔA100%
Recorded measurements of ΔA10 min, one per entry
result_type: ΔA10 min

1) O=C(O)c1cc(N=Nc2ccc3cc(S(=O)(=O)O)ccc3c2)ccc1O.[Na] | 0.072
2) COc1cc(N=Nc2ccc(N)cc2)c(C)cc1N | 0.032
3) O=C([O-])c1cc(N=Nc2ccc([N+](=O)[O-])cc2)ccc1O.[Na+] | 0.041
4) O=S(=O)([O-])c1cccc(N=Nc2ccc(Nc3ccccc3)cc2)c1.[Na+] | 0.033
5) Cc1nn(-c2cc(S(=O)(=O)[O-])ccc2Cl)c(O)c1N=Nc1ccccc1.[Na+] | 0.033
6) O=C([O-])c1cc(N=Nc2cccc([N+](=O)[O-])c2)ccc1O.[Na+] | 0.039

====

Each item that follows carries a reported Degree of progression of reaction (%) after 7.5 minutes.
System: sarcosine oxidase (SOD-TE)
Test: Acceleration of sarcosine detection reaction with small amount of sarcosine oxidase (Example 11)
Format: biochemical
Conditions: sarcosine detection reaction; ΔA/ΔA100%; 2.5 minutes after addition of second reagent; 0.04% (w/v) compound; 12.3 U/ml SOD-TE; not added: 60
result_type: Degree of progression of reaction (%) after 7.5 minutes

1. O=C(O)c1cc(N=Nc2ccc3cc(S(=O)(=O)O)ccc3c2)ccc1O.[Na] | 65
2. O=C([O-])c1cc(N=Nc2cccc([N+](=O)[O-])c2)ccc1O.[Na+] | 64
3. O=C([O-])c1cc(N=Nc2ccc([N+](=O)[O-])cc2)ccc1O.[Na+] | 67
4. COc1cc(N=Nc2cccc(S(=O)(=O)[O-])c2)ccc1NC(=O)Nc1ccc(N=Nc2ccc(O)c(C(=O)[O-])c2)cc1.[Na+].[Na+] | 68
5. COc1cc(N=Nc2ccc(N)cc2)c(C)cc1N | 63

====

System: CFP-DH4 (A1cOX)
Test: HbA1c detection reaction completed with excess A1cOX (Example 4)
Format: biochemical
Settings: change in A694-A751 9 minutes after mixing sample with first reagent; 0.04% (w/v) compound; 5.3 mg/ml CFP-DH4 (excess); blood cells 10.4% HbA1c; pH 6.5, 37° C.
// n strictly below 0.02 in ΔA9 min; y otherwise

1) O=C([O-])c1cc(N=Nc2cccc([N+](=O)[O-])c2)ccc1O.[Na+] | n
2) O=C([O-])C1=NN(c2ccc(S(=O)(=O)[O-])cc2)C(=O)C1N=Nc1ccc(S(=O)(=O)[O-])cc1.[Na+].[Na+].[Na+] (stereo not shown) [Tartrazine, reference compound] | y
3) O=C(O)c1cc(N=Nc2ccc3cc(S(=O)(=O)O)ccc3c2)ccc1O.[Na] | y
4) O=C([O-])c1cc(N=Nc2ccc([N+](=O)[O-])cc2)ccc1O.[Na+] | n
5) COc1cc(N=Nc2cccc(S(=O)(=O)[O-])c2)ccc1NC(=O)Nc1ccc(N=Nc2ccc(O)c(C(=O)[O-])c2)cc1.[Na+].[Na+] | n
6) Cc1nn(-c2cc(S(=O)(=O)[O-])ccc2Cl)c(O)c1N=Nc1ccccc1.[Na+] | n
7) O=S(=O)([O-])c1cccc(N=Nc2ccc(Nc3ccccc3)cc2)c1.[Na+] | n

====

Tested on: sarcosine oxidase (SOD-TE)
Assay: Sarcosine detection reaction completed with excess sarcosine oxidase (Example 10)
Type: biochemical
Conditions: change in A694-A751 10 minutes after mixing; 0.04% (w/v) compound; 123 U/ml SOD-TE (excess); 32 μM sarcosine; pH 8.0, 37° C.; defined as ΔA100%
Lab note - cut at 0.2 for ΔA10 min: satisfied if strictly below, not satisfied if not.

1) O=C([O-])c1cc(N=Nc2ccc([N+](=O)[O-])cc2)ccc1O.[Na+] [Mordant Orange 1] | not satisfied
2) COc1cc(N=Nc2ccc(N)cc2)c(C)cc1N [Disperse Diazo Black 3BF] | satisfied
3) COc1cc(N=Nc2cccc(S(=O)(=O)[O-])c2)ccc1NC(=O)Nc1ccc(N=Nc2ccc(O)c(C(=O)[O-])c2)cc1.[Na+].[Na+] [Direct Yellow 44] | not satisfied
4) O=C(O)c1cc(N=Nc2ccc3cc(S(=O)(=O)O)ccc3c2)ccc1O.[Na] [Chrome Yellow] | satisfied

====

Test system: CFP-DH4 (A1cOX)
Test: Acceleration of HbA1c detection reaction with small amount of A1cOX (Example 5)
Format: biochemical
Conditions: HbA1c detection reaction; ΔA/ΔA100%; 2.5 minutes after addition of second reagent; 0.04% (w/v) compound; 1.1 mg/ml CFP-DH4; not added: 51
result_type: Degree of progression of reaction (%) after 7.5 minutes

1) Cc1nn(-c2cc(S(=O)(=O)[O-])ccc2Cl)c(O)c1N=Nc1ccccc1.[Na+] | 75
2) O=C([O-])c1cc(N=Nc2cccc([N+](=O)[O-])c2)ccc1O.[Na+] | 76
3) COc1cc(N=Nc2cccc(S(=O)(=O)[O-])c2)ccc1NC(=O)Nc1ccc(N=Nc2ccc(O)c(C(=O)[O-])c2)cc1.[Na+].[Na+] | 77
4) O=S(=O)([O-])c1cccc(N=Nc2ccc(Nc3ccccc3)cc2)c1.[Na+] | 53
5) O=C([O-])C1=NN(c2ccc(S(=O)(=O)[O-])cc2)C(=O)C1N=Nc1ccc(S(=O)(=O)[O-])cc1.[Na+].[Na+].[Na+] (stereo not shown) [Tartrazine, reference compound] | 38
6) O=C([O-])c1cc(N=Nc2ccc([N+](=O)[O-])cc2)ccc1O.[Na+] | 80
7) O=C(O)c1cc(N=Nc2ccc3cc(S(=O)(=O)O)ccc3c2)ccc1O.[Na] | 53
